EXPERIMENT_SUMMARY: Weekly body weight of SHR rats
Type: in vivo, rat
TEST_PARAMETERS: 60 mg/kg/d intragastric, week 2
Marks after values point to notes of the source that are not given here.

MOLECULE	Body weight
Cc1nc(C)c(C(=O)O[C@H]2C(=O)O[C@H]3O[C@]45C(=O)OC6C[C@@H](C(C)(C)C)C32[C@@]64[C@@H](O)[C@@H]2OC(=O)[C@@H](C)[C@@]25O)nc1C (stereo partly drawn) [BZ]	242.5 g
Cc1nc(C)c(CO[C@H]2C(=O)O[C@H]3O[C@]45C(=O)OC6C[C@@H](C(C)(C)C)C32[C@@]64[C@@H](O)[C@@H]2OC(=O)[C@@H](C)[C@@]25O)nc1C (stereo partly drawn) [BM]	245.7^▴▴ g
CCCCC(OC(C)=O)c1ccccc1C(=O)O[C@H]1C(=O)O[C@H]2O[C@]34C(=O)OC5C[C@@H](C(C)(C)C)C21[C@@]53[C@@H](O)[C@@H]1OC(=O)[C@@H](C)[C@@]14O (stereo partly drawn) [BD]	247.1^▴▴ g
CC(=O)Oc1ccccc1C(=O)O[C@H]1C(=O)O[C@H]2O[C@]34C(=O)OC5C[C@@H](C(C)(C)C)C21[C@@]53[C@@H](O)[C@@H]1OC(=O)[C@@H](C)[C@@]14O (stereo partly drawn) [BA]	244.8^▴ g
CC1C(=O)OC2C(O)C34C5CC(C(C)(C)C)C36C(OC(=O)C6O)OC4(C(=O)O5)C12O (stereo not drawn) [GB, ginkgolide B]	243.1^▴ g
C[C@@H]1C(=O)O[C@H]2[C@H](O)[C@@]34C5C[C@@H](C(C)(C)C)C36[C@@H](OC(=O)[C@@H]6OC(=O)[C@H](c3ccccc3Cl)N3CCc6sccc6C3)O[C@@]4(C(=O)O5)[C@@]12O (stereo partly drawn) [BL]	243.1 g
